- target_desc: EGFR (mouse) (UniProt P00533)
- run_conditions: baf3
Listed next: entries and their corresponding IC50.

Some solved cases for reference:
O=C(NCCN1CCOCC1)c1cc(NCc2cc(O)ccc2O)ccc1O | > 50 µM
O=C(NCc1ccccc1)c1ccc(NCc2cc(O)ccc2O)cc1 | > 100 µM
O=C(NCCc1ccccc1)c1ccc(NCc2cc(O)ccc2O)cc1 | > 200 µM

What IC50 value was documented for this compound, COc1ccc(CCNC(=O)c2cc(NCc3cc(O)ccc3O)ccc2O)cc1 ?
> 100 µM

---

- target_desc: EGFR (human) (UniProt P00533)
- Sequence (P00533 whole entry, looked up): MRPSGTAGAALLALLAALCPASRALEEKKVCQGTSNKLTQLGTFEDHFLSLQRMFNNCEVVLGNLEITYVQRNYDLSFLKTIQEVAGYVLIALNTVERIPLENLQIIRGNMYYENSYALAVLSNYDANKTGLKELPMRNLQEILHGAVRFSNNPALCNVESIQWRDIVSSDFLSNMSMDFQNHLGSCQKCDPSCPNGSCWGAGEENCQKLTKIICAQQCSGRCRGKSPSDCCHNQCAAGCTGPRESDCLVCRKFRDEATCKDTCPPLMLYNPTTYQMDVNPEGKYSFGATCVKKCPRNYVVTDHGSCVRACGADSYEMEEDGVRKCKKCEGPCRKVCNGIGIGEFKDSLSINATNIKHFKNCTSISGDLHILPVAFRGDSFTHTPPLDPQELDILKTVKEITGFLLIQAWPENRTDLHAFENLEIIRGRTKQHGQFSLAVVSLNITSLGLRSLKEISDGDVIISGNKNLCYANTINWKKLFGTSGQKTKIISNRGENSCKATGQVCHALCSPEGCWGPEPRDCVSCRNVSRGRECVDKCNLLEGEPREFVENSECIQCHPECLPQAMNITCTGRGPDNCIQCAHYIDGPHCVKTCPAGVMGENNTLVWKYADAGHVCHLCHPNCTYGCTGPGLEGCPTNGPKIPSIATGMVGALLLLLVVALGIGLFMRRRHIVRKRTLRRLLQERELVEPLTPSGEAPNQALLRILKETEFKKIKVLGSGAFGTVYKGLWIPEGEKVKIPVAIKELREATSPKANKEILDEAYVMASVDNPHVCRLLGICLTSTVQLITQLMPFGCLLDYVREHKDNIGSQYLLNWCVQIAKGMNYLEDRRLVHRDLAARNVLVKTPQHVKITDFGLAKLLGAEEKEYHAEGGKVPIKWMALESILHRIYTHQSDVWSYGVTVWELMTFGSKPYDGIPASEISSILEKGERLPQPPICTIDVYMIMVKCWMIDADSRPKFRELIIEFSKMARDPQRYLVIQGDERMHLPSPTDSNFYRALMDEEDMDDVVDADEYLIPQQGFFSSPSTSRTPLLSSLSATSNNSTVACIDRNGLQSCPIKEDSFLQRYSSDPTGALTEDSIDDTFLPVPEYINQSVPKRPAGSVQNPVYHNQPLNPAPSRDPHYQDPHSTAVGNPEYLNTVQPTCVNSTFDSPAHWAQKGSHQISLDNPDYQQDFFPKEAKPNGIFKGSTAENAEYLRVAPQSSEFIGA
- run_conditions: hop-62
pIC50: −log10 of the molar value.
assay_metric: pIC50

Use the examples below as a reference point.
O=C(NCCc1ccccc1)c1cccc(NCc2cc(O)ccc2O)c1 | 5.42
CCCCCCNC(=O)c1cc(NCc2cc(O)ccc2O)ccc1O | 4.72

P: O=C(NCc1ccccc1)c1cc(NCc2cc(O)ccc2O)ccc1O
Q: O=C(NCCc1ccc(O)cc1)c1cc(NCc2cc(O)ccc2O)ccc1O
Rank P against Q by their pIC50 values and give the higher one. Mark your answer with the label of the selected entry.
Q

---

- target_desc: EGFR (human) (UniProt P00533)
- run_conditions: ovcar-3
assay_metric: IC50 (µM)

Solved cases (3 shown):
CCCCCCCCCCCCNC(=O)c1cc(NCc2cc(O)ccc2O)ccc1O | 1.9
O=C(NCCc1ccccc1)c1cc(NCc2cc(O)ccc2O)ccc1O | 7.7
O=C(NCCc1ccc(Cl)cc1)c1cc(NCc2cc(O)ccc2O)ccc1O | 5.9

a: O=C(NCCc1ccccc1)c1cccc(NCc2cc(O)ccc2O)c1
b: O=C(NCCc1ccc(F)cc1)c1cc(NCc2cc(O)ccc2O)ccc1O
c: COc1ccc(CCNC(=O)c2cc(NCc3cc(O)ccc3O)ccc2O)cc1
d: O=C(NCCc1ccc(O)cc1)c1cc(NCc2cc(O)ccc2O)ccc1O
e: O=C(NCc1ccccc1)c1cc(NCc2cc(O)ccc2O)ccc1O
Ordering: ascending IC50. Write the labels, ordered according to the request.
a, c, b, e, d

P: O=C(NCCCc1ccccc1)c1cc(NCc2cc(O)ccc2O)ccc1O
Q: O=C(NCCN1CCOCC1)c1cc(NCc2cc(O)ccc2O)ccc1O
R: CCCCCCNC(=O)c1cc(NCc2cc(O)ccc2O)ccc1O
S: O=C(NCCc1ccccn1)c1cc(NCc2cc(O)ccc2O)ccc1O
hey, can you rank those molecules up there by IC50? biggest number first please Please express your ranking as an ordered list of the labels.
Q, S, P, R

a: O=C(NCc1ccccc1)c1ccc(NCc2cc(O)ccc2O)cc1
b: O=C(NCCc1ccccc1)c1ccc(NCc2cc(O)ccc2O)cc1
Which value of IC50 is smaller, the one for a or the one for b ? Reply briefly: the label of your chosen item.
b
(b: 2.7 µM, a: 6.8 µM)

---

- target_desc: EGFR (human)
- run_conditions: sn12c
pIC50: −log10 of the molar value.
assay_metric: pIC50

These solved cases illustrate the format of a correct answer.
O=C(NC1CCc2ccccc2C1)c1cc(NCc2cc(O)ccc2O)ccc1O (stereo not given) | 4.74
COc1ccc(CCNC(=O)c2cc(NCc3cc(O)ccc3O)ccc2O)cc1 | 4.14
O=C(NCCc1ccc(F)cc1)c1cc(NCc2cc(O)ccc2O)ccc1O | 5.11

P: O=C(NCCc1ccccc1)c1ccc(NCc2cc(O)ccc2O)cc1
Q: O=C(NCCN1CCOCC1)c1cc(NCc2cc(O)ccc2O)ccc1O
Could you kindly indicate whether P or Q has the higher pIC50 value? Lab note: record the label of whichever item you select.
P
